assay.protocol: Growth, DNA synthesis and survival of normal MRC5 cells
Assay type: cell-based, humain
experimental.conditions: human; normal MRC5 cells, Figure 6; read-out: doses sans mort cellulaire
measure: MNTC

Ask | Which MNTC is listed for N[C@@H](CCC(=O)NO)C(=O)O [GAH, L-glutamique acide y monohydroxamate] ?
Reply | ≤ 800 µM
